MEASURED ON: T1, Recombinant human MMR (R&D systems) (human, UniProt P22897 19-1383)
T1 construct: Bought protein (R&D Systems #2534) coated on ELISA plates; also called hMMR; MRC1
T1 sequence: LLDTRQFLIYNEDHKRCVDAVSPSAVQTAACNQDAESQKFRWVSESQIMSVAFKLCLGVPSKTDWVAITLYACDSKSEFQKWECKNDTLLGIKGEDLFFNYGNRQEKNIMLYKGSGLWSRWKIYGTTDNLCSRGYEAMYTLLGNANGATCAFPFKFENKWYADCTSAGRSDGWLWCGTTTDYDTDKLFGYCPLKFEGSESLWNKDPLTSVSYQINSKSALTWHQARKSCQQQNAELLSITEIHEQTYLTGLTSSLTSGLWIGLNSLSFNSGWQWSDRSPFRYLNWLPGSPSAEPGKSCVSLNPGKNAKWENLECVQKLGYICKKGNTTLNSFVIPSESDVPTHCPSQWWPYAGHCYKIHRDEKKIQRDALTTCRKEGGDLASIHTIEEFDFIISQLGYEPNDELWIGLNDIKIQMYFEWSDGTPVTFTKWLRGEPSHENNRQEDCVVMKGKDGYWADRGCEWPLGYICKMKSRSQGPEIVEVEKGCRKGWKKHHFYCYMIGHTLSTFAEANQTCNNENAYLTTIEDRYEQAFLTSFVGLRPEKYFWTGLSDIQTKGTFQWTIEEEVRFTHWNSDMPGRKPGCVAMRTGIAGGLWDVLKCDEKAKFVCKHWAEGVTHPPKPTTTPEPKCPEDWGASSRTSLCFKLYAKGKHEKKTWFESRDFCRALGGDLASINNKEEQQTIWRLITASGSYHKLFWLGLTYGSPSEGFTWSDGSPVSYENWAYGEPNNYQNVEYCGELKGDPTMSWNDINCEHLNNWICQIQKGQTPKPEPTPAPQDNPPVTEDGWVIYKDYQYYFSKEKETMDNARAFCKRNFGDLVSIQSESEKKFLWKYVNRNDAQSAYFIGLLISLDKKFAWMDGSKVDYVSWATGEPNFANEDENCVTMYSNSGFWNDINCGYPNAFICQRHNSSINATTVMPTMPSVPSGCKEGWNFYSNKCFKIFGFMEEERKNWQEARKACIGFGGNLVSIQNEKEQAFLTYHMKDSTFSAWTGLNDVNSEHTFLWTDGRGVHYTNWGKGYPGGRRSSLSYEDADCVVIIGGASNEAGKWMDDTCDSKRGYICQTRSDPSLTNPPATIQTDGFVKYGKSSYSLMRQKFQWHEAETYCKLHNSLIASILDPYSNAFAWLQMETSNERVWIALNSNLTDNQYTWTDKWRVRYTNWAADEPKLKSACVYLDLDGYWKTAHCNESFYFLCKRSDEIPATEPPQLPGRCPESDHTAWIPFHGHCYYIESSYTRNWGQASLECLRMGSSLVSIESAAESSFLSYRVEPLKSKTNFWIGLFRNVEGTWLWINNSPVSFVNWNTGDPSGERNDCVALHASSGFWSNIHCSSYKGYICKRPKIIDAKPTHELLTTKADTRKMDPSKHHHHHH
METHOD SUMMARY: PE-ELISA, periplasmic extract on coated human MMR
MEASURED ENDPOINT: binding result

NbhmMMRm20.52 (VHH, Tested as a periplasmic extract in PE-ELISA) VHH: QVQLQESGGGLVQAGGSLRLSCAASGRIFSAYAMGWFRQAPGKEREFVAAISRSGDSTDYADSVKGRFTISRDSAKNMVYLQMNSLKPEDTALYHCAARTVSAPPSAAWGYGYWGQGTQVTVSS
binds
NbhmMMRm15.49 (VHH, Tested as a periplasmic extract in PE-ELISA) VHH: QVQLQESGGGLVQAGGSLRLSCAASGSTFSINNMGWYRQAPGKQRELVAGITGGNTHYADSVKGRFTISRDNAKNTMYLQMNSLKPEDTAVYYCNANWGAYWGQGTQVTVSS
binds
NbhmMMRm10.79 (VHH, Tested as a periplasmic extract in PE-ELISA) VHH: QVQLQESGGGLVQPGGSLKLSCAASGSIFSIKTMGWYRQAPGKQRELVAAVSSGGSTNYADSVKGRFTISRDNAKNAVYLQMNSLKPEDTAVYYCNADGVVAWDQPYDNYWGQGTQVTVSS
binds
